Every entry's value here was drawn from paper PMC5854672.

# assayed system: T1, mSlo1/β4(N123L) channel (mouse | human, UniProt Q08460 1-1209; Q86W47 1-210, N123L)
# T1 construct: mSlo1, BK channel α subunit (KCNMA1) of mouse, full-length cDNA, GenBank HQ221747.1; human BK channel β4 subunit (KCNMB4), full-length cDNA, GenBank AF207992.1; source: HEK293, transiently co-transfected (pcDNA3.1(+)), in excised membrane patches; copies: 4 + 4
# T1 sequence (Q08460 whole entry, chain 1 of 2): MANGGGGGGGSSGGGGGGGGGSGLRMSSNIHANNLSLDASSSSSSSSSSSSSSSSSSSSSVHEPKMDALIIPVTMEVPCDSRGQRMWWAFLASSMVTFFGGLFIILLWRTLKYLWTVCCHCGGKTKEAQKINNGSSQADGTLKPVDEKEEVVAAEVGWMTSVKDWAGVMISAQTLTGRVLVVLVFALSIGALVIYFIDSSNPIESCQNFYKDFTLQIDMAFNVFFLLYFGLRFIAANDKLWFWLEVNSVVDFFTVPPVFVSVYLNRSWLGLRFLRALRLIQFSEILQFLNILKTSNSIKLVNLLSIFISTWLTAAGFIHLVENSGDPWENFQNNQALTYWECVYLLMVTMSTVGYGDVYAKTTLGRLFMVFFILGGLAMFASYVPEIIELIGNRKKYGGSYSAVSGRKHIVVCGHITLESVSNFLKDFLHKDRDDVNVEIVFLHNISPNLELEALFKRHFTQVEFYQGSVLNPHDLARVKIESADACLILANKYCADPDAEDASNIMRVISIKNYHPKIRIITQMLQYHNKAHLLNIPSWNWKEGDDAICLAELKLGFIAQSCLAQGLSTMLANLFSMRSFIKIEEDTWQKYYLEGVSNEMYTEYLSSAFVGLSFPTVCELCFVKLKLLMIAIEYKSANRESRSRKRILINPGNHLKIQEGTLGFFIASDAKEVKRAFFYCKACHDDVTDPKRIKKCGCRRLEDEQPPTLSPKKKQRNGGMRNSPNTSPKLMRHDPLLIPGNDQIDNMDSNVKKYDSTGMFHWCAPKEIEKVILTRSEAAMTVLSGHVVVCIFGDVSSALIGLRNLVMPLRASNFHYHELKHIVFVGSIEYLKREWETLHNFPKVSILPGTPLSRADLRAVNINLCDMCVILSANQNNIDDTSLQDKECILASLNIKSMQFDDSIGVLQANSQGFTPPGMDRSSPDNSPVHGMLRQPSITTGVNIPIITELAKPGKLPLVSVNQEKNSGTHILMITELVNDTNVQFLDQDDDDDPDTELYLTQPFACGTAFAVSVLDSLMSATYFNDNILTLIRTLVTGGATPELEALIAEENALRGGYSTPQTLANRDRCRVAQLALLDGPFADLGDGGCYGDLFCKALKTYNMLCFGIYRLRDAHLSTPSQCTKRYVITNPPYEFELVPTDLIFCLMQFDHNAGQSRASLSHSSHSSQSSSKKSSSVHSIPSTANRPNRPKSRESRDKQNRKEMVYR
# T1 sequence (Q86W47 whole entry N123L, chain 2 of 2): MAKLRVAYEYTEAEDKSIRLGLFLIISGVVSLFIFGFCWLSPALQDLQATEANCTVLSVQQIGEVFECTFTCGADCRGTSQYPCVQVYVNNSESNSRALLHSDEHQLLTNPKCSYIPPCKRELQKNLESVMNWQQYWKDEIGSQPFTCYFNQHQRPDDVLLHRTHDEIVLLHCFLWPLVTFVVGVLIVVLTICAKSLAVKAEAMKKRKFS
# test: patch-clamp electrophysiology (time course of current block); outside-out patches of transfected HEK293 cells perfused with 1 μM ChTX; steps to +100 mV, intracellular 10 μM Ca2+; τon and τoff fitted to a first order bimolecular reaction scheme; KD = [ChTX]/((τoff/τon) − 1)
# test conditions: one partner purified
observable: pKd
Scale note: pKd = -log10(concentration in M).

I am curious: what pKd value has been reported for QFTNVSCTTSKECWSVCQRLHNTSRGKCMNKKCRCYS (charybdotoxin (ChTX), scorpion toxin; also called ChTX; source: bought: Sigma-Aldrich (Art. No. C7802)) [Charybdotoxin] ?
7.38
